Tested on: SR leukemia
Test: NCI tumour cell line growth inhibition, 48 h
Outcome: True for TGI of at least 30 µM; False for anything lower.

# example entries with known answers
{"Compound": "Cn1c(NCC(CN2CCCC2)OC(=O)c2ccccc2)cc(=O)n(C)c1=O (stereo not given)", "Assayed target": "SR leukemia", "Label": "True"}
{"Compound": "O=C(NS(=O)(=O)c1ccc(NC[C@H]2COCCO2)c([N+](=O)[O-])c1)c1ccc(N2CCN(CC3=C(c4ccc(Cl)cc4)CC4(CCC4)CC3)CC2)cc1Oc1cnc2[nH]ccc2c1", "Assayed target": "SR leukemia", "Label": "False"}
{"Compound": "Cc1cccc(N=C/C=C(\\Cl)c2ccc3ccccc3c2)c1", "Assayed target": "SR leukemia", "Label": "False"}

*Q* Check this compound for TGI at or above 30 µM: O=C(Nc1ccc(I)cc1)c1cccc([N+](=O)[O-])c1O
*A* False

*Q* Record O=C(N/C=C/C=C/Sc1ccccc1)OCc1ccccc1 ; criterion: TGI no lower than 30 µM. Met?
*A* True

*Q* I'd appreciate it if you could say whether COC(=O)c1ccc(C)cc1C1CN=NC12Cc1cc(C)ccc1C2=O (stereo not given) has TGI at least equal to 30 µM.
*A* True

*Q* API: above_or_equal(metric=TGI, cutoff=30 µM) for item CS(=N)(=O)CCC(N)P(=O)(O)O (stereo not given)
*A* True

*Q* Check if TGI >= 30 µM (inclusive). Item: COc1ncc(-c2ccc3nccc(C#CCN4CCN(S(C)(=O)=O)CC4)c3c2)cc1NS(=O)(=O)c1ccc(F)cc1F
*A* False

*Q* Is TGI for Cc1c2ccccc2c(C2C3C(=O)N(c4cccc5ccccc45)C(=O)C3ON2Cc2ccc(CC(N)=O)cc2)c2ccccc12 (stereo not given) at or above 30 µM?
*A* True

*Q* Please check the record Cc1ccc(S(=O)(=O)ON2C(=O)c3c(N)c(C#N)c(-c4ccccc4)c(-c4ccccc4)c3C2=O)cc1 and state if its TGI is at or above 30 µM.
*A* True

*Q* Tell me whether TGI is at least 30 µM here: CCCn1c(=O)c2nn3c(=O)n(CCC)c(=O)c3nn2c1=O
*A* True

*Q* Please indicate if the recorded TGI for O=C1c2cccnc2C(=O)c2c1c(C(=O)OCCc1ccccn1)c1ccccn21 meets or exceeds 30 µM.
*A* True

*Q* Reported TGI reaches at least 30 µM for COC1=CC(=O)OC(/C=C(C)/C=C/C2=C(C)CCCC2(C)C)C1 (stereo not given) ?
*A* True

*Q* Please indicate if the recorded TGI for CCP(=O)(CC)C(Cl)(Cl)C(O)C(Cl)(Cl)Cl (stereo not given) meets or exceeds 30 µM.
*A* True

*Q* Is it the case that C=CCC12CCC(=O)[C@@]1(C)CC=C(O)C2=O (stereo not given in full) has TGI reaching or exceeding 30 µM?
*A* True

*Q* Check this compound for TGI at or above 30 µM: OCCCc1cnco1
*A* True

*Q* Textbook exercise: given the entry CCN(CC)C(=S)N/N=C/c1cc(OC)ccc1O , state whether its TGI is greater than or equal to 30 µM.
*A* False

*Q* Does CCOC(=O)C1=CNC(C(=O)OCC)C1c1cccn1-c1ccccc1 (stereo not given) have a reported TGI of at least 30 µM?
*A* True

Each recorded value in this set is attributed to PubChem BioAssay (NCI).
